src = paper PMC10397247

# target.system: T1, 4H497-AA
# T1 chain: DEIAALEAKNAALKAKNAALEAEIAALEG
# assay.protocol: two-hybrid library CCmax;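 further: natural log of median RNA to DNA barcode read ratio; higher means stronger binding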
# particulars: mean of both orientations
quantity.name: interaction score

query: What value of interaction score has been recorded for this entry: DKNAALKAEIAALEAEIAALEAKNAALEG [4H3591-AA]
result: -1.86

query: What value of interaction score has been recorded for this entry: DKNAALKAEIAALKAENAALEAEIAALKG [4H3666-AA]
result: -1.84

query: What value of interaction score has been recorded for this entry: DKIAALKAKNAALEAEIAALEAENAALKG [4H2948-AA]
result: -1.54

query: What value of interaction score has been recorded for this entry: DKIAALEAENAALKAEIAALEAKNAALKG [4H2248-AA]
result: -2.18
